Target: Chymotrypsin, from human pancreas (Homo sapiens)
Sequence (P17538 19-263): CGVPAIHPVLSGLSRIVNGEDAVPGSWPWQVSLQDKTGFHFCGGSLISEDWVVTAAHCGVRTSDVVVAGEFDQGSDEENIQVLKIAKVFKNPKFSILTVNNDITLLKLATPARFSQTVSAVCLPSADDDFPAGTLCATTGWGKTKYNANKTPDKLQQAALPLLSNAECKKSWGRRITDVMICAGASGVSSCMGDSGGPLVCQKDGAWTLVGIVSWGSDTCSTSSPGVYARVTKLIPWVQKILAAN
Assay: Enzymatic assay, chymotrypsin
Conditions: at 100 μM
Where a SMILES comes first, the peptide text is derived from it.
For each entry below, report its Chymotrypsin at 100 μM % value.

Here's what some known entries look like.
CCCC[C@@H]1NC(=O)[C@@H]2CCCN2C(=O)[C@H]2CCCN2C(=O)[C@H](c2ccccc2)NC(=O)[C@@H]2CSSC[C@H](NC1=O)C(=O)N[C@@H]([C@@H](C)O)C(=O)N[C@@H](C)C(=O)N[C@@H](CO)C(=O)N[C@@H]([C@@H](C)CC)C(=O)N1CCC[C@H]1C(=O)N1CCC[C@H]1C(=O)N[C@@H](CCC(N)=O)C(=O)N2 [Ex. 136] (HELM PEPTIDE1{[Nle].C.T.A.S.I.P.P.Q.C.[Phg].[dP].P}$PEPTIDE1,PEPTIDE1,2:R3-10:R3|PEPTIDE1,PEPTIDE1,1:R1-13:R2$$$V2.0) ... 67.9%
CC[C@H](C)[C@@H]1NC(=O)[C@@H]2CCCN2C(=O)[C@@H]2CCCN2C(=O)[C@H](CC(=O)O)NC(=O)[C@H](CO)NC(=O)[C@H](CCCCN)NC(=O)[C@H]([C@@H](C)O)NC(=O)[C@@H]2CSSC[C@H](NC1=O)C(=O)N[C@@H](CO)C(=O)N[C@H](C)C(=O)N1CCC[C@H]1C(=O)N[C@@H](Cc1ccccc1)C(=O)N2 [Ex. 49] (HELM PEPTIDE1{F.C.T.K.S.D.P.P.I.C.S.[dA].P}$PEPTIDE1,PEPTIDE1,2:R3-10:R3|PEPTIDE1,PEPTIDE1,1:R1-13:R2$$$V2.0) ... 0%
CC[C@H](C)[C@@H]1NC(=O)[C@@H]2CCCN2C(=O)[C@@H]2CCCN2C(=O)[C@H](CC(=O)O)NC(=O)[C@H](CO)NC(=O)[C@H](CCCCN)NC(=O)[C@H]([C@@H](C)O)NC(=O)[C@@H]2CSSC[C@H](NC1=O)C(=O)N[C@@H](Cc1ccc(O)cc1)C(=O)N1CCC[C@@H]1C(=O)N1CCC[C@H]1C(=O)N[C@@H](CCc1ccccc1)C(=O)N2 [Ex. 30] (HELM PEPTIDE1{[O=C([C@H](CCc1ccccc1)N[*:1])[*:2]].C.T.K.S.D.P.P.I.C.Y.[dP].P}$PEPTIDE1,PEPTIDE1,2:R3-10:R3|PEPTIDE1,PEPTIDE1,1:R1-13:R2$$$V2.0) ... 49%
CC[C@H](C)[C@@H]1NC(=O)[C@@H]2CCCN2C(=O)[C@H]2CCCN2C(=O)[C@H](CCCNC(=N)N)NC(=O)[C@@H]2CSSC[C@H](NC1=O)C(=O)N[C@@H]([C@@H](C)O)C(=O)N[C@@H](CCCCN)C(=O)N[C@@H](CO)C(=O)N[C@@H](CC(=O)O)C(=O)N1CCC[C@H]1C(=O)N1CCC[C@H]1C(=O)N[C@@H](CC1CCCCC1)C(=O)N2 [Ex. 58] (HELM PEPTIDE1{I.C.T.K.S.D.P.P.[Cha].C.R.[dP].P}$PEPTIDE1,PEPTIDE1,2:R3-10:R3|PEPTIDE1,PEPTIDE1,1:R1-13:R2$$$V2.0) ... 0%
CC[C@H](C)[C@@H]1NC(=O)[C@@H]2CCCN2C(=O)[C@@H]2CCCN2C(=O)[C@H](CC(=O)O)NC(=O)[C@H](CO)NC(=O)[C@H](CCCCN)NC(=O)[C@H]([C@@H](C)O)NC(=O)[C@@H]2CSSC[C@H](NC1=O)C(=O)N[C@@H](CO)C(=O)N1CCC[C@@H]1C(=O)N1CCC[C@H]1C(=O)N[C@@H](C1CCCCC1)C(=O)N2 [Ex. 11] (HELM PEPTIDE1{[O=C([C@@H](N[*:1])C1CCCCC1)[*:2]].C.T.K.S.D.P.P.I.C.S.[dP].P}$PEPTIDE1,PEPTIDE1,2:R3-10:R3|PEPTIDE1,PEPTIDE1,1:R1-13:R2$$$V2.0) ... 73.6%
CCCC[C@@H]1NC(=O)[C@@H]2CCCN2C(=O)[C@H]2CCCN2C(=O)[C@H](Cc2ccc(O)cc2)NC(=O)[C@@H]2CSSC[C@H](NC1=O)C(=O)N[C@@H]([C@@H](C)O)C(=O)N[C@@H](C)C(=O)N[C@@H](CO)C(=O)N[C@@H](CC1CCCCC1)C(=O)N1CCC[C@H]1C(=O)N1CCC[C@H]1C(=O)N[C@@H](CCC(N)=O)C(=O)N2 [Ex. 141] (HELM PEPTIDE1{[Nle].C.T.A.S.[Cha].P.P.Q.C.Y.[dP].P}$PEPTIDE1,PEPTIDE1,2:R3-10:R3|PEPTIDE1,PEPTIDE1,1:R1-13:R2$$$V2.0) ... 72.9%

Field: Chymotrypsin at 100 μM %. Fill in for each record below.
1. CC[C@H](C)[C@@H]1NC(=O)[C@@H]2CCCN2C(=O)[C@H]2CCCN2C(=O)[C@H](CCCNC(=N)N)NC(=O)[C@@H]2CSSC[C@H](NC1=O)C(=O)N[C@@H]([C@@H](C)O)C(=O)N[C@@H](CCCCN)C(=O)N[C@@H](CO)C(=O)N[C@@H](CC(=O)O)C(=O)N1CCC[C@H]1C(=O)N1CCC[C@H]1C(=O)N[C@@H](CCC(N)=O)C(=O)N2 [Ex. 55] (HELM PEPTIDE1{I.C.T.K.S.D.P.P.Q.C.R.[dP].P}$PEPTIDE1,PEPTIDE1,2:R3-10:R3|PEPTIDE1,PEPTIDE1,1:R1-13:R2$$$V2.0)
2. CC[C@H](C)[C@@H]1NC(=O)[C@@H]2CCCN2C(=O)[C@H]2CCCN2C(=O)[C@H](CCCNC(=N)N)NC(=O)[C@@H]2CSSC[C@H](NC1=O)C(=O)N[C@@H]([C@@H](C)O)C(=O)N[C@@H](CCCCN)C(=O)N[C@@H](CO)C(=O)N[C@@H](CC(=O)O)C(=O)N1CCC[C@H]1C(=O)N1CCC[C@H]1C(=O)N[C@@H](CCC(N)=O)C(=O)N2 [Ex. 17] (HELM PEPTIDE1{I.C.T.K.S.D.P.P.Q.C.R.[dP].P}$PEPTIDE1,PEPTIDE1,2:R3-10:R3|PEPTIDE1,PEPTIDE1,1:R1-13:R2$$$V2.0)

Result:
1: 16%; 2: 16%

* * *

For each entry below, report its Trypsin at 100 μM % value.
Target: UniProt P07477
Assay: Enzymatic assay, trypsin
Settings: at 100 μM
Where a SMILES comes first, the peptide text is derived from it.
One number for each entry, in %.

CCCC[C@@H]1NC(=O)[C@@H]2CCCN2C(=O)[C@H]2CCCN2C(=O)[C@H](Cc2ccc(O)cc2)NC(=O)[C@H](CCCCN)NC(=O)[C@H](CCC(N)=O)NC(=O)[C@@H]2CCCN2C(=O)[C@@H]2CCCN2C(=O)[C@H]([C@@H](C)CC)NC(=O)[C@H](CO)NC(=O)[C@H](C)NC(=O)[C@H]([C@@H](C)O)NC(=O)[C@H](CCC(=O)O)NC1=O [Ex. 104] (HELM PEPTIDE1{[Nle].E.T.A.S.I.P.P.Q.K.Y.[dP].P}$PEPTIDE1,PEPTIDE1,1:R1-13:R2$$$V2.0) ... 0
CCCCCCCC[C@@H]1NC(=O)[C@@H]2CCCN2C(=O)[C@H]2CCCN2C(=O)[C@H](Cc2ccc(O)cc2)NC(=O)[C@H](CCCCN)NC(=O)[C@H](CCC(N)=O)NC(=O)[C@@H]2CCCN2C(=O)[C@@H]2CCCN2C(=O)[C@H]([C@@H](C)CC)NC(=O)[C@H](CO)NC(=O)[C@H](C)NC(=O)[C@H]([C@@H](C)O)NC(=O)[C@H](CCC(=O)O)NC1=O [Ex. 156] (HELM PEPTIDE1{[CCCCCCCC[C@H](N[*:1])C(=O)[*:2]].E.T.A.S.I.P.P.Q.K.Y.[dP].P}$PEPTIDE1,PEPTIDE1,1:R1-13:R2$$$V2.0) ... 0
CCCC[C@@H]1NC(=O)[C@H](Cc2ccccc2)NC(=O)[C@H]2CCCN2C(=O)[C@H](Cc2ccc(O)cc2)NC(=O)[C@@H]2CSSC[C@H](NC1=O)C(=O)N[C@@H]([C@@H](C)O)C(=O)N[C@@H](C)C(=O)N[C@@H](CO)C(=O)N[C@@H]([C@@H](C)CC)C(=O)N1CCC[C@H]1C(=O)N1CCC[C@H]1C(=O)N[C@@H](CCC(N)=O)C(=O)N2 [Ex. 122] (HELM PEPTIDE1{[Nle].C.T.A.S.I.P.P.Q.C.Y.[dP].F}$PEPTIDE1,PEPTIDE1,2:R3-10:R3|PEPTIDE1,PEPTIDE1,1:R1-13:R2$$$V2.0) ... 19
CCCC[C@@H]1NC(=O)[C@@H]2CCCN2C(=O)[C@@H](Cc2ccccc2)NC(=O)[C@H](Cc2ccc(O)cc2)NC(=O)[C@@H]2CSSC[C@H](NC1=O)C(=O)N[C@@H]([C@@H](C)O)C(=O)N[C@@H](C)C(=O)N[C@@H](CO)C(=O)N[C@@H]([C@@H](C)CC)C(=O)N1CCC[C@H]1C(=O)N1CCC[C@H]1C(=O)N[C@@H](CCC(N)=O)C(=O)N2 [Ex. 116] (HELM PEPTIDE1{A.S.I.P.P.Q.C.Y.[dF].P.[Nle].C.T}$PEPTIDE1,PEPTIDE1,7:R3-12:R3|PEPTIDE1,PEPTIDE1,1:R1-13:R2$$$V2.0) ... 0
CC[C@H](C)[C@@H]1NC(=O)[C@H](C)NC(=O)[C@@H]2CCCN2C(=O)[C@H](CC(=O)O)NC(=O)[C@H](CO)NC(=O)[C@H](CCCCN)NC(=O)[C@H]([C@@H](C)O)NC(=O)[C@@H]2CSSC[C@H](NC1=O)C(=O)N[C@@H](CCCNC(=N)N)C(=O)N1CCC[C@@H]1C(=O)N1CCC[C@H]1C(=O)N[C@@H]([C@@H](C)CC)C(=O)N2 [Ex. 14] (HELM PEPTIDE1{I.C.T.K.S.D.P.A.I.C.R.[dP].P}$PEPTIDE1,PEPTIDE1,2:R3-10:R3|PEPTIDE1,PEPTIDE1,1:R1-13:R2$$$V2.0) ... 88

Field: Trypsin at 100 μM %. Fill in for each record below.
1. CC[C@H](C)[C@@H]1NC(=O)[C@@H]2CCCN2C(=O)[C@@H]2CCCN2C(=O)[C@H](CC(=O)O)NC(=O)[C@H](CO)NC(=O)[C@H](CCCCN)NC(=O)[C@H]([C@@H](C)O)NC(=O)[C@@H]2CSSC[C@H](NC1=O)C(=O)N[C@@H](CC(=O)O)C(=O)N1CCC[C@@H]1C(=O)N1CCC[C@H]1C(=O)N[C@@H](Cc1ccccc1)C(=O)N2 [Ex. 2] (HELM PEPTIDE1{F.C.T.K.S.D.P.P.I.C.D.[dP].P}$PEPTIDE1,PEPTIDE1,2:R3-10:R3|PEPTIDE1,PEPTIDE1,1:R1-13:R2$$$V2.0)
2. CC[C@H](C)[C@@H]1NC(=O)[C@H](CO)NC(=O)[C@H](C)NC(=O)[C@H]([C@@H](C)O)NC(=O)[C@@H]2CSSC[C@H](NC(=O)[C@H](CCC(N)=O)NC(=O)[C@@H]3CCCN3C(=O)[C@@H]3CCCN3C1=O)C(=O)N[C@@H](CCC(N)=O)C(=O)N1CCC[C@@H]1C(=O)N1CCC[C@H]1C(=O)N[C@@H](CCc1ccccc1)C(=O)N2 [Ex. 143] (HELM PEPTIDE1{[O=C([C@H](CCc1ccccc1)N[*:1])[*:2]].C.T.A.S.I.P.P.Q.C.Q.[dP].P}$PEPTIDE1,PEPTIDE1,2:R3-10:R3|PEPTIDE1,PEPTIDE1,1:R1-13:R2$$$V2.0)
3. CC[C@H](C)[C@@H]1NC(=O)[C@@H]2CCCN2C(=O)[C@@H]2CCCN2C(=O)[C@H](CC(=O)O)NC(=O)[C@H](CO)NC(=O)[C@H](CCCCN)NC(=O)[C@H]([C@@H](C)O)NC(=O)[C@@H]2CSSC[C@H](NC1=O)C(=O)N[C@@H](CO)C(=O)N1CCC[C@@H]1C(=O)N1CCC[C@H]1C(=O)N[C@@H](Cc1ccc(N)cc1)C(=O)N2 [Ex. 9] (HELM PEPTIDE1{[Nc1ccc(C[C@H](N[*:1])C(=O)[*:2])cc1].C.T.K.S.D.P.P.I.C.S.[dP].P}$PEPTIDE1,PEPTIDE1,2:R3-10:R3|PEPTIDE1,PEPTIDE1,1:R1-13:R2$$$V2.0)

Result:
1: 92; 2: 12; 3: 88.1
